Kindly supply the reported Ki values for the records listed here.
test_target: Neuronal acetylcholine receptor subunit alpha-7 (Rattus norvegicus)
Sequence (Q05941 whole entry): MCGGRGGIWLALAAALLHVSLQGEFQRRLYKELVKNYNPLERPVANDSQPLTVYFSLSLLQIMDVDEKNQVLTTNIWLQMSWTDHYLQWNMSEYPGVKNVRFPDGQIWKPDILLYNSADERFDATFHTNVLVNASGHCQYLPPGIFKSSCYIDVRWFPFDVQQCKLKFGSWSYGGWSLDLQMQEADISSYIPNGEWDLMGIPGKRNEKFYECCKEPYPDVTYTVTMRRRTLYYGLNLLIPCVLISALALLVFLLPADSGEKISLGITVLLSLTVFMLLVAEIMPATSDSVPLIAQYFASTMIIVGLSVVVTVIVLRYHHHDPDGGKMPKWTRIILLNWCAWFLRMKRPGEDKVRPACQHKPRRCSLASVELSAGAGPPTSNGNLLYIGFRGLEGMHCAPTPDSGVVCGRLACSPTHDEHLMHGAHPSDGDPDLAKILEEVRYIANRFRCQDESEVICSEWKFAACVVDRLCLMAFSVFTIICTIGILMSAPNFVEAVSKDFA
run_description: Displacement of [125I] alpha bungarotoxin from rat alpha7 nACh receptor expressed in rat hippocampal membrane preincubated for 30 mins followed by radioligand addition by gamma counting analysis
Only the number, expressed in nM, is required.

# value lookup — system Neuronal acetylcholine receptor subunit alpha-7 (Rattus norvegicus), readout Ki, item Clc1cccc(C2=NCCCC2)c1
394

Lab note: need Ki with Neuronal acetylcholine receptor subunit alpha-7 (Rattus norvegicus) for entry Oc1cccc(C2=NCCCC2)c1 , please look it up.
9300

Give the reported Ki for Ic1cccc(C2=NCCCC2)c1 (system: Neuronal acetylcholine receptor subunit alpha-7 (Rattus norvegicus)).
11.3

Short answer please: Ki, Neuronal acetylcholine receptor subunit alpha-7 (Rattus norvegicus), entry c1cncc(C2=NCCCC2)c1
32

Tell me reported Ki for Brc1cccc(C2=NCCCC2)c1 , tested with Neuronal acetylcholine receptor subunit alpha-7 (Rattus norvegicus).
43.2

Request: Ki, test system Neuronal acetylcholine receptor subunit alpha-7 (Rattus norvegicus), entry Cc1cccc(C2=NCCCC2)c1
384

Find the measured Ki: item OCc1cccc(C2=NCCCC2)c1 , target or system Neuronal acetylcholine receptor subunit alpha-7 (Rattus norvegicus).
158

// lookup Ki | system=Neuronal acetylcholine receptor subunit alpha-7 (Rattus norvegicus) | key= Brc1cc(Br)cc(C2=NCCCC2)c1
343

What measured Ki is associated with Oc1cccc([C@H]2C[C@@H]3CC[C@H]2N3)c1 (racemic) on Neuronal acetylcholine receptor subunit alpha-7 (Rattus norvegicus)?
609

Request - read-out Ki | tested on Neuronal acetylcholine receptor subunit alpha-7 (Rattus norvegicus) | compound Fc1cccc(C2=NCCCC2)c1
2370

Requested read-out Ki, target or system Neuronal acetylcholine receptor subunit alpha-7 (Rattus norvegicus), entry OCc1cccc([C@H]2C[C@@H]3CC[C@H]2N3)c1 (racemic)
1800

Query for Neuronal acetylcholine receptor subunit alpha-7 (Rattus norvegicus): what Ki does the record show for c1ccc(C2=NCCCC2)cc1 ?
2400

Hello, I am looking for reported Ki with Neuronal acetylcholine receptor subunit alpha-7 (Rattus norvegicus) for OCc1cc(F)cc(C2=NCCCC2)c1 . Could you help?
821

What reported Ki corresponds to Fc1cc(Br)cc(C2=NCCCC2)c1 on Neuronal acetylcholine receptor subunit alpha-7 (Rattus norvegicus)?
204
